Biological target: T1, PHD of UHRF1 (residues 307–366) (human, UniProt Q96T88 307-366)
T1 chain: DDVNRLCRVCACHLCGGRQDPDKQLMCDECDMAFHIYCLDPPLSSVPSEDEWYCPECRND
Assay: ITC; in presence of SRA (1:2)
pKd: −log10 of the molar value.

| Binder | pKd |
| --- | --- |
| ARTKQTARKSTGGKAPR [H3 peptide (1–17)] | 5.33 |
